conditions: % Viability non-Wnt responsive cells; also: test concentration or dose not given here
Where a SMILES comes first, the peptide text is derived from it.
value.kind: viability (%)

>  <compound>
CC[C@H](C)[C@H](NC(=O)[C@H](CC(C)C)NC(=O)[C@H](Cc1ccccc1)NC(=O)[C@H](Cc1c[nH]c2ccccc12)NC(=O)[C@@H](N)CCSC)C(=O)N[C@@H](CO)C(=O)N[C@@H](Cc1ccccc1)C(=O)N[C@@H](Cc1c[nH]c2ccccc12)C(=O)NCC(N)=O [compound 108] (H-MWFLISFWG-NH2)

>  <display.unit>
%

>  <reported.result>
102

$$$$
>  <compound>
CC[C@H](C)[C@H](NC(=O)[C@H](CC(C)C)NC(=O)[C@H](Cc1ccccc1)NC(=O)[C@H](Cc1c[nH]c2ccccc12)NC(=O)[C@H](CCSC)NC(=O)[C@H](CCCNC(=N)N)NC(=O)[C@H](CO)NC(=O)[C@@H](N)CCSC)C(=O)N[C@@H](CO)C(=O)N[C@@H](Cc1ccccc1)C(=O)N[C@@H](Cc1c[nH]c2ccccc12)C(=O)NCC(=O)O [compound 41] (H-MSRMWFLISFWG-OH)

>  <display.unit>
%

>  <reported.result>
96.1

$$$$
